The measurements presented in this section are drawn from PubChem BioAssay.

Measured composite z-score, listed per entry.
tested on: Inhibin beta A chain (activin A); experiment: INHBA (activin A) binders on microarrays, primary screen, biochemical, small-molecule microarray, 635 nm fluorescence scan (AID 1107); conditions: small-molecule microarray binding, higher = more signal;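 also: mouse activin A protein probed at 4.33 µg/mL on printed slides; score merges bound-protein fluorescence near 667 nm with spot signal-to-noise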
Lab note: record the figure alone, no unit after it.

Use these answered entries as a reference point.
INSERT INTO measurements (compound, assay_value) VALUES
  ('COC(=O)C(CC#Cc1ccc2c(c1)[C@]1(C(=O)N2)[C@H](C(=O)Nc2nc3ccccc3s2)[C@H]2C(=O)O[C@H](c3ccccc3)[C@H](c3ccccc3)N2[C@@H]1c1ccc(O)cc1)C(=O)OC', 0.381),
  ('CCCc1cc2c(n1Cc1cc(F)cc(F)c1)C(C)C1CN(C(=O)c3ccccc3)C(C)(C(=O)OC)C21 (stereo not given)', 1.27),
  ('COCCOC(=O)N1C(=O)[C@@]2(c3cc(C#CCC(C(=O)OC)C(=O)OC)ccc31)[C@H](c1ccccc1OCCO)N1[C@H](c3ccccc3)[C@H](c3ccccc3)OC(=O)[C@H]1[C@@H]2C(=O)N1CCN(c2ncccn2)CC1', 1.14),
  ('CN(C)CCCCCCNC(=O)[C@@H]1C[C@@H]2C(=O)N[C@@H](Cc3ccccc3)C(=O)N2[C@@H]1c1ccc(O)cc1', 1.41),
  ('COC(=O)[C@@]1(Cc2ccc(OC)cc2)[C@H]2c3cc(C(=O)N4CCCC4)n(Cc4ccc(O)c(OC)c4)c3C[C@H]2CN1C(=O)c1ccccc1', -0.0478);

Continue with the next compound.
According to the records, this compound `C=CCOC(=O)[C@@H]1[C@H]2C(=O)O[C@H](c3ccccc3)[C@H](c3ccccc3)N2[C@H](c2ccc(OCCOC(=O)[C@@H]3C[C@@H]4C(=O)NCC(=O)N4[C@@H]3c3ccc(O)cc3)cc2)[C@@]12C(=O)Nc1ccc(I)cc12` displays composite z-score of 0.0932

====

test: inhibitors of hydroxyurea-induced Chk1 phosphorylation, primary screen, imaging, HeLa, phospho-Chk1 antibody, percent positive cells (AID 1186); details: hydroxyurea-induced phospho-Chk1 immunofluorescence imaging, higher = more signal
QUANTITY_KIND: z-score
Lab note: record the figure alone, no unit after it.

According to the records, this compound `COc1ccc(C(=O)Nc2ccc(CN3C(=O)[C@]4(O[C@H](CCO)[C@@H]([Si](C)(C)c5ccc(OC)cc5)[C@@H]4C)c4ccccc43)cc2)cc1` displays z-score of -0.02

====

Measured composite z-score, listed per entry.
test system: glycogen synthase kinase-3 (GSK3A per assay name; protocol says GSK3B); test: GSK3 binders on small-molecule microarrays, primary screen, biochemical, small-molecule microarray, 635 nm fluorescence, GSK3A (AID 1103); details: small-molecule microarray binding, fluorescence 635 nm; higher = more signal; also: the record names both GSK3A and GSK3B
Lab note: record the figure alone, no unit after it.

Use these answered entries as a reference point.
INSERT INTO measurements (compound, assay_value) VALUES
  ('C=CCOC(=O)[C@@H]1[C@H]2C(=O)O[C@H](c3ccccc3)[C@H](c3ccccc3)N2[C@H](c2ccc(OCCOC(=O)[C@H]3C[C@H]4C(=O)N5CCC[C@H]5C(=O)N4[C@H]3c3ccc(O)cc3)cc2)[C@@]12C(=O)Nc1ccc(I)cc12', 1.34),
  ('O=C(c1ccccc1)N1C(=O)[C@]2(COC(c3ccc(OCCCO)cc3)=N2)Cc2ccccc21', 1.32),
  ('COC(=O)[C@@]1(Cc2ccc(OC)cc2)[C@H]2c3cc(C(=O)N4CCCC4)n(Cc4ccc(C)c(F)c4F)c3C[C@H]2CN1C(=O)c1ccccc1', 1.29),
  ('COc1ccc(C(O)C2C=CC3C(=O)N(Cc4ccccc4)C(=O)C3N2n2cnnc2)cc1OCc1ccccc1 (stereo not given)', 0.332),
  ('O=C1[C@@]23C=C(Br)[C@H](C[C@@H]2CCOC3)[C@@]12CO2', 0.329);

Continue with the next compound.
According to the records, this compound `C=C[C@H](C)[C@@H](OC(=O)Nc1ccc(OC)cc1)c1ccc(O)c2ccccc12` displays composite z-score of -0.177
